test-target: DNA topoisomerase 1 (Homo sapiens) (UniProt P11387)
Sequence (whole entry): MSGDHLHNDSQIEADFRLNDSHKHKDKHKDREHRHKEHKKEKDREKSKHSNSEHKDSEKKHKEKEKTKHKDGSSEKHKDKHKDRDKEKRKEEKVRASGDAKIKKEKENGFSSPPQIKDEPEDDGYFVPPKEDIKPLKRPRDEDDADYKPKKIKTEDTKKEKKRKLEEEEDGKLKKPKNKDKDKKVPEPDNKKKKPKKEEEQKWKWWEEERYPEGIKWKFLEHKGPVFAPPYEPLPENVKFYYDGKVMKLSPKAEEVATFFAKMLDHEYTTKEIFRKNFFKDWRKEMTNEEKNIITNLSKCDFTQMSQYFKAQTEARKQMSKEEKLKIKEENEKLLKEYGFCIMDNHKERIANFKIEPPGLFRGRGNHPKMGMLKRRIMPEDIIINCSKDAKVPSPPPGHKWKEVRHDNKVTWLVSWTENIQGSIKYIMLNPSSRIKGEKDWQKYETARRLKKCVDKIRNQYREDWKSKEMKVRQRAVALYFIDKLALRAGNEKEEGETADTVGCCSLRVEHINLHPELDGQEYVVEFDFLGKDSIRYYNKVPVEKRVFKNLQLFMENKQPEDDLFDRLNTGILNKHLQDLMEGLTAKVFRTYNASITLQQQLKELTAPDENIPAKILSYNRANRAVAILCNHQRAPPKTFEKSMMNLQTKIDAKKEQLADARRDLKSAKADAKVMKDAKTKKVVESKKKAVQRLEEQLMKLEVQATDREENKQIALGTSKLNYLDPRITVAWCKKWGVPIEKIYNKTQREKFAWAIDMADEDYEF
method-notes: Inhibition of human topoisomerase I assessed as DNA unwinding using DNA pBR322 as substrate at 2 uM incubated for 30 mins by ethidium bromide staining based agarose gel electrophoresis
Label 1.0 when inhibition is at or above 20%; otherwise label 0.0.

Field: example entries. Status: answers known.
• Cc1c(Cl)cccc1Nc1ccccc1C(=O)NCc1ccc(O)cc1 = 1.0
• Cc1c(Cl)cccc1Nc1ccccc1C(=O)NCc1ccc(O)c(F)c1 = 1.0
• COc1ccc(NC(=O)c2ccccc2Nc2cccc(Cl)c2C)cc1 = 0.0
• Cc1c(Cl)cccc1Nc1ccccc1C(=O)NCc1cccc(O)c1 = 1.0
• O=C(NCc1ccc(O)cc1)c1ccccc1Nc1ccccc1 = 1.0

Please look at the following molecule next.
Q: Decide: inhibition of Cc1c(Cl)cccc1Oc1ccccc1C(=O)NCc1ccc(O)cc1 >= 20%?
Ans: 0.0
